- Organism: Oryctolagus cuniculus

{"compound": "NS(=O)(=O)c1ccc(NC(=S)NC(CC(=O)O)C(=O)O)cc1 (stereo unspecified)", "Delta IOP": "2 mmHg"}
{"compound": "CC(C)CC(/N=C(\\S)Nc1ccc(S(N)(=O)=O)cc1)C(=O)O (stereo unspecified)", "Delta IOP": "5.2 mmHg"}
{"compound": "NS(=O)(=O)c1ccc(N/C(S)=N/C(Cc2c[nH]cn2)C(=O)O)cc1 (stereo unspecified)", "Delta IOP": "4 mmHg"}
{"compound": "NCCCCC(/N=C(\\S)Nc1ccc(S(N)(=O)=O)cc1)C(=O)O (stereo unspecified)", "Delta IOP": "0 mmHg"}
{"compound": "CC(/N=C(/S)Nc1ccc(S(N)(=O)=O)cc1)C(=O)O (stereo unspecified)", "Delta IOP": "4 mmHg"}
{"compound": "NS(=O)(=O)c1ccc(N/C(S)=N/C(CS)C(=O)O)cc1 (stereo unspecified)", "Delta IOP": "0 mmHg"}

====

- target or system: Carbonic anhydrase 2 (Homo sapiens)
Residues, ends and D or L forms follow the SMILES beside them. *: point of attachment. X1 = NS(=O)(=O)c1ccc(NC(=S)*)cc1
Ki under 5 nM gets fulfilled, anything at or over 5 nM gets not fulfilled.

{"molecule": "NS(=O)(=O)c1ccc(N/C(S)=N\\CCc2ccccn2)cc1", "group label": "not fulfilled"}
{"molecule": "CC(/N=C(/S)Nc1ccc(S(N)(=O)=O)cc1)C(=O)O (centres undefined)", "group label": "not fulfilled"}
{"molecule": "NS(=O)(=O)c1ccc(N/C(S)=N/C(C(=O)O)c2ccccc2)cc1 (centres undefined)", "group label": "not fulfilled"}
{"molecule": "NS(=O)(=O)c1ccc(NC(=S)NCC(=O)NCC(=O)O)cc1", "group label": "not fulfilled"}
{"molecule": "NS(=O)(=O)c1ccc(NC(=S)N[C@@H](CC(=O)O)C(=O)N[C@@H](CC(=O)O)C(=O)N[C@@H](CC(=O)O)C(=O)N[C@@H](CC(=O)O)C(=O)O)cc1 (X1-DDDD-OH)", "group label": "not fulfilled"}
{"molecule": "CC(/N=C(/S)Nc1ccc(S(N)(=O)=O)cc1)C(=O)NC(Cc1ccccc1)C(=O)O (centres undefined)", "group label": "fulfilled"}
{"molecule": "NS(=O)(=O)c1ccc(NC(S)=NC(Cc2c[nH]cn2)C(=O)NC(Cc2ccccc2)C(=O)O)cc1 (centres undefined)", "group label": "fulfilled"}

====

- Species: Oryctolagus cuniculus
We begin with a simple list: items and their reported kin.

{"compound": "NS(=O)(=O)c1nnc(NS(=O)(=O)c2ccccc2)s1 [BENZOLAMIDE]", "kin": "40 h⁻¹"}
{"compound": "NS(=O)(=O)c1ccc(N/C(S)=N/C(C(=O)O)C(O)c2ccccc2)cc1 (centres undefined)", "kin": "12300 h⁻¹"}
{"compound": "NC(=O)CC(/N=C(\\S)Nc1ccc(S(N)(=O)=O)cc1)C(=O)O (centres undefined)", "kin": "7800 h⁻¹"}
{"compound": "NS(=O)(=O)c1ccc(N/C(S)=N/C(CO)C(=O)O)cc1 (centres undefined)", "kin": "8000 h⁻¹"}
{"compound": "CC(=O)/N=c1/sc(S(N)(=O)=O)nn1C [METHAZOLAMIDE]", "kin": "13000 h⁻¹"}
{"compound": "NS(=O)(=O)c1ccc(N/C(S)=N/C(C(=O)O)c2ccccc2)cc1 (centres undefined)", "kin": "14300 h⁻¹"}
{"compound": "NS(=O)(=O)c1ccc(NC(=S)NC(CC(=O)O)C(=O)O)cc1 (centres undefined)", "kin": "800 h⁻¹"}
{"compound": "NS(=O)(=O)c1ccc(N/C(S)=N/C(CS)C(=O)O)cc1 (centres undefined)", "kin": "700 h⁻¹"}
{"compound": "NS(=O)(=O)c1ccc(N/C(S)=N/CCC(=O)NC(Cc2c[nH]cn2)C(=O)O)cc1 (centres undefined)", "kin": "5000 h⁻¹"}
